# Assay System: T1, CRBN, Q96SW2;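 also: pooled lentiviral library of zinc finger degron-EGFP fusions in mCherry-positive Jurkat cells, FACS-sorted after compound exposure, with degron abundance counted by next-generation sequencing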
# T1 chain: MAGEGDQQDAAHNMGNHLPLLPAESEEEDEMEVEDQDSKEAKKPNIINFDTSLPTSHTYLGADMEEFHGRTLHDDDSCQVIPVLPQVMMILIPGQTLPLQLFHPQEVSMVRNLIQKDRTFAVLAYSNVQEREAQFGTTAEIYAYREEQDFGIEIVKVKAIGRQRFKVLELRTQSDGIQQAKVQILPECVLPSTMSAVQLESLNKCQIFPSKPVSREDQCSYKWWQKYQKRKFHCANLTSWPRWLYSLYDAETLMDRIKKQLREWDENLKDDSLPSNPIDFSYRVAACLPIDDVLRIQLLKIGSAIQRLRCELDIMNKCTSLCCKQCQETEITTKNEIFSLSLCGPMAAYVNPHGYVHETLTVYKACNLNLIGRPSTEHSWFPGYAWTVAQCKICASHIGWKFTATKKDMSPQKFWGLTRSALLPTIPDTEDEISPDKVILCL
# Test Summary: log2 fold change of degron read counts, EGFP-low vs EGFP+ sorted cells (limma voom), compound-induced degradation; higher = more compound-induced degradation of the degron-EGFP fusion; degrons are variants of IKZF1/3 zinc finger 2; compound dose not given here
# Measurement Parameters: Jurkat; 18 h; compound: compound 33 (diphenyl IMiD analogue)
The full ranking holds about 8,300 sequences; the median of “log2 fold change of degron read counts, EGFP-low vs EGFP+ sorted cells (limma voom), compound-induced degradation” is about -1.1, and the highest 2% start at about 3.2. This excerpt belongs to a sample that is enriched for the highest values.
Where log2 fold change of degron read counts equals or exceeds 1, the correct label is Criterion met; where it does not, the label is Criterion not met.

{"Sequence Chain": "FHCPICGASFTQKGNLLRHIKL [46F_47H_49P_50I_52G_53A_54S_55F_67L_, Q9UKT9]", "Class Name": "Criterion met"}

Q. hey, is log2 fold change of degron read counts for this one >= 1? FLCEVCGAPFTQKGNLLRHIKL [46F_47L_49E_50V_52G_53A_54P_55F_67L_, Q9UKT9]
A. Criterion met

Q. Say whether FQCPVCGAPFTQKGNLLRHIKL [46F_47Q_49P_50V_52G_53A_54P_55F_67L_, Q9UKT9] shows log2 fold change of degron read counts of 1 or more.
A. Criterion met
